Reported protein stability index by item:
B1: RHOBTB3 (parent)
chain: VSHVFMLLFNVKSPTDIQDSSIIR

Variants of: B1
Assay summary: protein stability index of a GFP-peptide fusion (GPS, HEK-293T) (PSI 1-6); higher = more stable;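 note: lentivirally expressed fusions sorted by FACS into six bins by GFP to DsRed ratio, PSI derived from sequencing read proportions per bin multiplied by bin number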
Run parameters: c terminus: a fixed tail appended
Give a plain numeric answer without units written out.

mutation_string=S21Q reported_value=4.13
mutation_string=S13D reported_value=2.36
mutation_string=K12L reported_value=1.46
mutation_string=S13M reported_value=3.52
mutation_string=S2W reported_value=2.82

Recorded protein stability index for "F9L" , please?
3.21

Now the same for "R24H"
3.13
